Please provide measured Scratch region 48 hours later (%) for the entries that follow.
Tested on: human somatic stem cells
measurement_protocol: In vitro wound healing test (scratch assay)
Type: cell-based
condition_details: final concentration 0.001%, 100 × area of scratch region at 48 hours / area at 0 hours, no addition control 61
Answer in %, number only, no unit symbol.

Exam item: Which Scratch region 48 hours later (%) is reported for this compound? CCCCCC=CCC=CCCCCCCCC(=O)OCC(O)COC(=O)CCCCCCCCCCCCCCC (stereo not shown) [Fatty acid glyceride 2, 1-Palmitin-3-linolein]
Marked response: 30

Exam item: Which Scratch region 48 hours later (%) is reported for this compound? CCCCCC=CCC=CCCCCCCCC(=O)OC(CO)COC(=O)CCCCCCCCCCCCCCC (stereo not shown) [Fatty acid glyceride 7, 1-Palmitin-2-linolein]
Marked response: 45

Exam item: Which Scratch region 48 hours later (%) is reported for this compound? CCCCCC=CCC=CCCCCCCCC(=O)OCC(O)COC(=O)CCCCCCCC=CCCCCCCCC (stereo not shown) [Fatty acid glyceride 4, 1-Olein-3-linolein]
Marked response: 38

Exam item: Which Scratch region 48 hours later (%) is reported for this compound? CCCCCCCCCCCCCCCC(=O)O [Palmitic acid, reference compound]
Marked response: 60

----------
Test system: murine embryonic stem cells (murine ES cells)
measurement_protocol: Evaluation of undifferentiated state-maintaining effect on stem cells (Nanog gene expression, real-time PCR)
Format: cell-based
condition_details: final concentration 0.001%, 3 days of culture, Nanog/Gapdh relative expression at onset of culture defined as 100% undifferentiation, no addition control 25
Please provide measured Nanog expression level (%) after 3 days of culturing for the entries that follow.
Answer in %, number only, no unit symbol.

Exam item: Which Nanog expression level (%) after 3 days of culturing is reported for this compound? CCCCCCCCCCCCCCCC(=O)OCC(COC(=O)CCCCCCCCCCCCCCC)OC(=O)CCCCCCCCCCCCCCC [Tripalmitin, reference compound]
Marked response: 26

Exam item: Which Nanog expression level (%) after 3 days of culturing is reported for this compound? CCCCCCCCCCCCCCCC(=O)O [Palmitic acid, reference compound]
Marked response: 27

Exam item: Which Nanog expression level (%) after 3 days of culturing is reported for this compound? CCCCCC=CCC=CCCCCCCCC(=O)OC(CO)COC(=O)CCCCCCCCCCCCCCC (centres unmarked) [Fatty acid glyceride 7, 1-Palmitin-2-linolein]
Marked response: 41

Exam item: Which Nanog expression level (%) after 3 days of culturing is reported for this compound? CCCCCC=CCC=CCCCCCCCC(=O)OCC(O)COC(=O)CCCCCCCC=CCC=CCCCCC (centres unmarked) [Fatty acid glyceride 3, 1,3-Dilinolein]
Marked response: 65

Exam item: Which Nanog expression level (%) after 3 days of culturing is reported for this compound? CCCCCCCC/C=C\CCCCCCCC(=O)OCC(COC(=O)CCCCCCC/C=C\CCCCCCCC)OC(=O)CCCCCCC/C=C\CCCCCCCC [Fatty acid glyceride 8, Triolein]
Marked response: 35
